Numbers sourced from PubChem BioAssay AID1259407.

Tested on: CCRIS mutagenicity, Ames/micronucleus/aberration tests
Assay: CCRIS mutagenicity studies
Details: Test System: Ames Salmonella typhimurium; Strain/Indicator: TA98; Metabolic Activation: Rat, Liver, S-9, Phenobarbital and 5,6-benzoflavone; Method: Preincubation
Activity calls are given as the source filed them. No rule for the calls is given here.
Choose the fitting class; nothing outside yes (1) = active, no (0) = inactive is accepted.

                                   compound  label_class
0                       O=C1NC(=O)c2ccccc21       no (0)
1                         CCOC(=O)CC(=O)OCC       no (0)
2  ClC(Cl)(Cl)c1nc(-c2ccc3c(c2)OCO3)nc(C(Cl)(Cl)Cl)n1       no (0)
3  Nc1ccc(-c2cc([N+](=O)[O-])c(N)c(Cl)c2Cl)cc1      yes (1)

Recorded call for CC12C=CC(C1)C1C(=O)OC(=O)C12 (stereo not given) ?
no (0)

====

Tested on: CCRIS mutagenicity, Ames/micronucleus/aberration tests
Experiment: CCRIS mutagenicity studies
Conditions: Test System: AMES SALMONELLA TYPHIMURIUM; Strain/Indicator: TA100; Metabolic Activation: HAMSTER, LIVER, S-9, AROCLOR 1254; Method: STANDARD PLATE
Active and inactive are the calls of the source. How the calls were made is not given here.
measured_attribute: mutagenic call

compound	target_or_test_system	endpoint_value
CC(=O)CC(C)(C)O	CCRIS mutagenicity, Ames/micronucleus/aberration tests	inactive; negative
O=C/C=C/c1ccccc1	CCRIS mutagenicity, Ames/micronucleus/aberration tests	inactive; negative
O=C(/C=N/O)Nc1ccccc1	CCRIS mutagenicity, Ames/micronucleus/aberration tests	inactive; negative
Nc1ccccc1	CCRIS mutagenicity, Ames/micronucleus/aberration tests	inactive; negative
O=CC(=O)c1ccccc1	CCRIS mutagenicity, Ames/micronucleus/aberration tests	active; positive
Clc1cc(Cl)nc(Cl)n1	CCRIS mutagenicity, Ames/micronucleus/aberration tests	inactive; negative

Requested read-out: mutagenic call. Entry: COc1cc(CNC(=O)CCCC/C=C/C(C)C)ccc1O
inactive; negative

Can you look up the measured mutagenic call of Nc1ccc2c(c1)C(=O)c1ccccc1C2=O for me?
active; positive

====

Tested on: CCRIS mutagenicity, Ames/micronucleus/aberration tests
Assay: CCRIS mutagenicity studies
Settings: Test System: AMES SALMONELLA TYPHIMURIUM; Strain/Indicator: TA100; Metabolic Activation: RAT, LIVER, S-9, KC500 OR PHENOBARBITAL; Method: LIQUID SUSPENSION
The source made the active and inactive calls. The rule behind the calls is not given here.
measured_attribute: mutagenic call

                                   molecule    endpoint_value
0                       CCCCCCCCCCCCN(C)N=O  active; positive
1    CC(=O)Nc1nc(-c2ccc([N+](=O)[O-])o2)cs1  active; positive
2  CC1CN(/N=C/c2ccc([N+](=O)[O-])o2)C(=O)N1 (centres undefined)  active; positive
3                             CN(N=O)C(N)=O  active; positive
4                CC(=O)Nc1ccc(-c2ccccc2)cc1  active; positive
5                           Oc1cccc2cccnc12  active; positive

Reported mutagenic call, molecule COc1cccc2c1C(=O)c1c(O)c3c(c(O)c1C2=O)C[C@@](O)(C(C)=O)C[C@@H]3O[C@H]1C[C@H](N)[C@H](O)[C@H](C)O1 : ____
active; positive

# input molecule: CN=[N+](C)[O-] ; wanted: its mutagenic call
active; positive

Request the reported mutagenic call associated with Nc1ccc(N=Nc2ccccc2)cc1
active; positive
